# Test system: Hordeum murinum
# assay.comment: Pre-emergence herbicidal effect, greenhouse pot test
# Assay type: in vivo
# experimental.context: 320 g a.i./ha, visual score after 3 weeks, 100% = plants have died, 0% = like control
Collected Herbicidal effect against [%] HORMU values appear next to each entry.
Kindly answer with a numeric value in %, unit omitted.

[
  {
    "compound": "CC#Cc1cc(C)c(C2=C(OC(=O)OCC)C3(CCC(OCC)CC3)NC2=O)c(CC)c1 (stereo not shown) [Example P10]",
    "unit.symbol": "%",
    "Herbicidal effect against [%] HORMU": 90
  }
]

Query: // lookup Herbicidal effect against [%] HORMU for CC#Cc1cc(C)c(C2=C(OC(=O)OC)C3(CCC(OCC)CC3)NC2=O)c(C)c1 (stereo not shown)
Response: 100

Query: // lookup Herbicidal effect against [%] HORMU for CC#Cc1cc(C)c(C2=C(O)C3(CCC(OCC)CC3)NC2=O)c(C)c1 (stereo not shown) [Example D6]
Response: 100

Query: // lookup Herbicidal effect against [%] HORMU for CC#Cc1cc(C)c(C2=C(O)C3(CCC(OCC)CC3)NC2=O)c(C)c1 (stereo not shown) [Example D7]
Response: 100
